In this section we review reported solubility at 24 h values for a set of molecules.
# assay.details: Solubility experiment (HPLC, external standard)
# Format: physicochemical
# conditions: ph 7.4 medium, pH 7.4, pH 7.4 medium, 37 °C, 24 h
Response body: numeric value in µg/mL, unit text excluded.

COCCn1c(-c2cc(C#CCN3CCN(C(=O)CO)CC3)c[n+]([O-])c2[C@H](C)OC)c2c3cc(ccc31)-c1csc(n1)C[C@H](NC(=O)[C@H]1[C@@H]3COC[C@@H]31)C(=O)N1CCC[C@H](N1)C(=O)OCC(C)(C)C2 (atropisomer, axis not shown; (Sa)) [Compound Z38-2]; 176

Could you now consider this next molecule?
Requested read-out: solubility at 24 h. Entry: CCn1c(-c2cc(C#CCN3CCN(C(=O)CN)CC3)cnc2[C@H](C)OC)c2c3cc(ccc31)-c1coc(n1)C[C@H](NC(=O)[C@H]1[C@@H]3COC[C@@H]31)C(=O)N1CCC[C@H](N1)C(=O)OCC(C)(C)C2 (atropisomer, axis not shown; (Ra)) [Compound Z167]
363
